Values compiled from ChEMBL document CHEMBL1122315.

test system: L1210; assay: Fraction of the cell population of cultured lymphoid leukemia L1210 cells in mitosis after 24 hr; at the concentration of 0.3 uM; type: functional, Mus musculus
Endpoint: Mitotic index

Molecule | Assayed System | Observed
CCOC(=O)Nc1ccc(/N=C(/C=C(/O)OCC)c2ccccc2)c(N)n1 | L1210 | 0.03
CCOC(=O)Nc1cc2c(c(N)n1)N=C(CCc1ccccc1)CN2 | L1210 | 0.33
CCOC(=O)Nc1cc2c(c(N)n1)N=C(c1ccc(C(F)(F)F)cc1)CN2 | L1210 | 0.01
CCOC(=O)Nc1cc2ncc(-c3ccccc3)nc2c(N)n1 | L1210 | 0.02

###

Quick reference for pEC50 among some molecules
test system: KB; assay: Inhibition of colony formation of KB human epidermoid carcinoma cells.; assay type: functional; conditions: read-out: ED50 (the source's name)
pEC50: −log10 of the molar value.

Molecule | Qualifier | pEC50
CCOC(=O)Nc1cc(N)c2nc(CN(C)c3ccc(C(=O)OC)cc3)cnc2n1 | = | 3.62
COC(=O)c1ccc(N(C)CC2=Nc3c(cc(N)nc3Cl)NC2)cc1 | < | 4.00
CCOC(=O)Nc1cc2c(c(O)n1)N=C(CN(C)c1ccc(C(=O)OC)cc1)CN2 | = | 5.10
CCOC(=O)c1ccc(NCc2cnc3nc(N)nc(N)c3n2)cc1 | = | 4.77
CCOC(=O)Nc1cc2c(c(NC(=O)OCC)n1)N=C(C)CN2 | = | 4.04
CCOC(=O)Nc1cc2ncc(CN(C)c3ccccc3)nc2c(N)n1 | = | 6.17
COC(=O)c1ccc(N(C)CC2=Nc3c(N)nc(N)nc3NC2)cc1 | = | 4.68
CN(Cc1cnc2cc(N)nc(N)c2n1)c1ccccc1 | < | 4.00
CCOC(=O)Nc1cc2ncc(C(=O)N(C)c3ccccc3)nc2c(N)n1 | < | 4.00
COC(=O)c1ccc(N(C)Cc2cnc3nc(N)nc(N)c3n2)cc1 | = | 4.72
CCOC(=O)Nc1cc(N)c2c(n1)NCC(CN(C)c1ccc(C(=O)OC)cc1)=N2 | = | 4.62

###

system: KB; test: Inhibition of colony formation of KB human epidermoid carcinoma cells.; type: functional; settings: read-out: ED50 (the source's name)
pEC50: −log10 of the molar value.
Quick reference for pEC50 among some compounds

Compound | Assayed System | pEC50
CN(CC1=Nc2c(cc(N)nc2S)NC1)c1ccc(C(=O)O)cc1 | KB | 4.54
CCOC(=O)Nc1cc2c(c(N)n1)NC(CN(C)c1ccccc1)CN2 (stereo not drawn) | KB | 6.22
CCOC(=O)c1ccc(NCC2=Nc3c(N)nc(N)nc3NC2)cc1 | KB | 5.00
